- Test system: glucose-stimulated insulin secretion (GSIS) from β-cells in mouse islets
- Assay Notes: Islet secretion assay: insulin secretion from mouse islets
- Assay type: cell-based
- Study Conditions: Mus musculus, read-out: IC50, reduction of insulin secretion (GSIS), mouse islets
Metric Name: pIC50
Convention used: pIC50 is expressed as -log10 of the molar concentration.

Inquiry: Please give the measured pIC50 for this compound: NCCc1ccc(O)c(O)c1
Reply text: 5.89

---

- Test Target: endogenous α2A-adrenergic receptors in INS-1E cells (Rattus norvegicus, UniProt P22909)
- Construct: adherent INS-1E cells expressing the endogenous α2A-adrenergic receptors; endogenous in cells
- Assay Notes: [3H]RX821002 radioligand binding, INS-1E cell membranes
Metric Name: pKi
Convention used: pKi is expressed as -log10 of the molar concentration.

Inquiry: Please give the measured pKi for this compound: NCCc1ccc(O)c(O)c1 [DA, Dopamine]
Reply text: 6.79

---

- Tested on: glucose-stimulated insulin secretion (GSIS) from β-cells in mouse islets
- Assay Notes: Islet secretion assay: insulin secretion from mouse islets
- Assay type: cell-based
- Study Conditions: Mus musculus, mouse islets; read-out: IC50, reduction of insulin secretion (GSIS)
Metric Name: IC50 (nM)
Express your answer in nM, writing the number without its unit.

Inquiry: Please give the measured IC50 for this molecule: NC[C@H](O)c1ccc(O)c(O)c1 [NE, norepinephrine]
Reply text: 178

---

- Test system: glucose-stimulated insulin secretion (GSIS) from β-cells in mouse islets
- Assay Notes: Islet secretion assay: insulin secretion from mouse islets
- Type: cell-based
- Study Conditions: mouse islets; read-out: IC50, reduction of insulin secretion (GSIS)
- Protocol: Islets were freshly isolated via collagenase digestion of pancreata as described previously. Human pancreatic islets were isolated via collagenase digestion and purified from four non-diabetic human donors (Supplementary Table S1) as described previously. Following isolation and purification, human or mouse islets were plated at a density of 15 islets per well into 24-well tissue culture-treated plates. […] The islets were used immediately after overnight recovery for hormone secretion assays. […]
Metric Name: IC50
Enter the number, and then the unit.

Inquiry: Please give the measured IC50 for this compound: NC[C@H](O)c1ccc(O)c(O)c1 [NE, norepinephrine]
Reply text: 179 nM

---

- Test Target: human α2A-adrenergic receptor (Homo sapiens, UniProt P08913)
- Sequence (P08913 whole entry): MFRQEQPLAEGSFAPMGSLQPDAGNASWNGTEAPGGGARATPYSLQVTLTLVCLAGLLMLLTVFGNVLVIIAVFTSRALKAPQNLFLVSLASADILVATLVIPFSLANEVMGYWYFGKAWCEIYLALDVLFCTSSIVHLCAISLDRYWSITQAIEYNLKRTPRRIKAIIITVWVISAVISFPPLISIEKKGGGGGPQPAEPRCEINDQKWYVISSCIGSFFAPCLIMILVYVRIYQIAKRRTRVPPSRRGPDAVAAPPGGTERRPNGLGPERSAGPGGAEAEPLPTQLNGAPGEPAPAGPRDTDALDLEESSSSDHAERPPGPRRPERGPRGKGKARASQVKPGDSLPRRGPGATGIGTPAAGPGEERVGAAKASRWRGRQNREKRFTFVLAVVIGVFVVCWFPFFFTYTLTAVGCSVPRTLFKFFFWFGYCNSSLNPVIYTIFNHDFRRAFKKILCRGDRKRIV
Metric Name: pKd
Convention used: pKd is expressed as -log10 of the molar concentration.

Inquiry: Lab request: please report pKd under test system human α2A-adrenergic receptor (Homo sapiens, UniProt P08913) for COC1(C2=NCCN2)COc2ccccc2O1 (stereo not shown) [[^3H]RX821002]
Reply text: 9.17

---

- Test system: α-cell glucagon secretion from mouse islets
- Assay Notes: Islet secretion assay: glucagon secretion from mouse islets
- Type: cell-based
- Study Conditions: Mus musculus, 1 h, read-out: EC50, increase in secreted glucagon
Metric Name: EC50 (nM)
Express your answer in nM, writing the number without its unit.

Inquiry: Please give the measured EC50 for this compound: NCCc1ccc(O)c(O)c1
Reply text: 14.9

---

- Test Target: endogenous α2A-adrenergic receptors in INS-1E cells (Rattus norvegicus, UniProt P22909)
- Construct: adherent INS-1E cells expressing the endogenous α2A-adrenergic receptors; endogenous in cells; host or cells: INS-1E (rat insulinoma) cell membranes
- Sequence (P22909 1-465): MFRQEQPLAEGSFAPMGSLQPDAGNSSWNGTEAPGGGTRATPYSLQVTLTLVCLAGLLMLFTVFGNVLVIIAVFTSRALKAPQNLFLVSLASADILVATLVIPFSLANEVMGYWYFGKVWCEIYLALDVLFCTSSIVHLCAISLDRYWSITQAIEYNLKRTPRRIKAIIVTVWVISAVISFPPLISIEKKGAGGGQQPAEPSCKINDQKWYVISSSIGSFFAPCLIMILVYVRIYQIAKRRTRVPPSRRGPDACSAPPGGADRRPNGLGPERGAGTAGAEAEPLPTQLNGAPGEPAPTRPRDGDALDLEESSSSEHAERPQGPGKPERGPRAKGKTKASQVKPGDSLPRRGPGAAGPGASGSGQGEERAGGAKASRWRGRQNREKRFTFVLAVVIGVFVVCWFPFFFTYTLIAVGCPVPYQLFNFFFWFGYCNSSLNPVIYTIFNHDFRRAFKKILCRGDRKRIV
- Assay Notes: [3H]RX821002 radioligand binding, INS-1E cell membranes
- Study Conditions: parental INS-1E cell membranes; read-out: KD, saturation binding
Metric Name: Kd (nM)
Express your answer in nM, writing the number without its unit.

Inquiry: Please give the measured Kd for this compound: COC1(C2=NCCN2)COc2ccccc2O1 (stereo not shown) [[^3H]RX821002]
Reply text: 0.1
